The measured values listed here are drawn from ChEMBL document CHEMBL1201862.

- assayed_system: Leucine aminopeptidase (Plasmodium falciparum 3D7, UniProt Q8IL11)
- Sequence (Q8IL11 whole entry): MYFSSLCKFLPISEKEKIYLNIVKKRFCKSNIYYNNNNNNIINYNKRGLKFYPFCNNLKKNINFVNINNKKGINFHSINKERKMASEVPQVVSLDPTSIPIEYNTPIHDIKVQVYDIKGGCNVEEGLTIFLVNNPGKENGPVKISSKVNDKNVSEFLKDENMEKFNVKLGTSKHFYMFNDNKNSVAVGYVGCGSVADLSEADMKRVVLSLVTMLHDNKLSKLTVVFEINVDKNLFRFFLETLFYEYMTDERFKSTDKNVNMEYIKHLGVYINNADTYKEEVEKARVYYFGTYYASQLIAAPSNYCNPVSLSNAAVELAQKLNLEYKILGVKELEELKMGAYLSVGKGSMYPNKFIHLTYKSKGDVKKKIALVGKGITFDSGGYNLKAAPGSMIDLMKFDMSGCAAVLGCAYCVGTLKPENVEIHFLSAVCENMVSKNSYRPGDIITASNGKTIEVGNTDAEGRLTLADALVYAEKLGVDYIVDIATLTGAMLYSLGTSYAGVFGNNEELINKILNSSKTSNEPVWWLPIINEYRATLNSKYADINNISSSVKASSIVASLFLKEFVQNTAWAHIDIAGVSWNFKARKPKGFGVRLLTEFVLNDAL
- protocol_notes: P. falciparum M17LAP inhibitors, primary screen, biochemical, fluorogenic H-Leu-NHMec substrate, 1536-well (AID 1619)
- Assay type: functional
Calls of active or inactive are those of the source.
assay_readout: IC50

CCN(CC)c1ccc(NC(=O)CSc2ccsc2[N+](=O)[O-])c(C)c1	1.9 µM (active)
O=C(CN1C(=O)c2ccccc2S1(=O)=O)NC1CC2CCC1C2 (stereo unspecified)	75.4 µM (active)
COc1ccccc1/C=C/C=N/NC(=O)CCC1C(=O)NN=C1C (stereo unspecified)	57.2 µM (active)
CC(C)C1N=C2c3ccccc3N=C(SCC(=O)c3ccc(O)c(O)c3)N2C1=O (stereo unspecified)	17.7 µM (active)
O=C(CSc1nc[nH]n1)Nc1nnc(-c2ccccc2)s1	43.1 µM (active)
COCCSc1nnc(NC(=O)c2cc(C(=O)OC)cc([N+](=O)[O-])c2)s1	60.2 µM (active)
O=C(O)C1CCCCC1C(=O)Nc1cc(Cl)ccc1Cl (stereo unspecified)	25 µM (active)
c1nc(NCc2ccc3c(c2)OCO3)n[nH]1	17.9 µM (active)
CCOC(=O)c1c(NC(=O)C2C3CCC(O3)C2C(=O)O)sc(C)c1-c1ccc(F)cc1 (stereo unspecified)	8.78 µM (active)
O=C(NCC1COc2ccccc2O1)C1C2C=CC3(CN(Cc4cccs4)C(=O)C13)O2 (stereo unspecified)	7.96 µM (active)
Cc1cc(C)nc(NS(=O)(=O)c2ccc(N/C=C3\CCCC3=O)cc2)n1	56.7 µM (active)

---

The molecules below have reported AC50 for Cytochrome P450 2D6 (Homo sapiens, UniProt P10635).
Activity calls are given as the source filed them.
assay_readout: AC50

O=C(Cn1c(C(F)(F)F)nc2ccccc21)c1ccccc1	15.8 µM (inconclusive)
COc1ccccc1-c1ccc2ncnc(NCc3cnc(C)cn3)c2c1	39.8 µM (inconclusive)
COc1ccc(-c2cc(CCCC(=O)NCCc3ccc(OC)cc3OC)no2)cc1	1.12 µM (active)
CCc1cc2c(nc1CC)CCN(CC/C(C)=N/OC)C2	3.16 µM (inconclusive)
COc1cccc(C(=O)/C=C/c2ccc(SC)cc2)c1	14.1 µM (inconclusive)
Cn1c(SCC(=O)N2CCN(S(=O)(=O)c3ccccc3)CC2)nc2ccccc21	14.1 µM (inconclusive)
COc1nc(Oc2ccc(/C=N/O)cc2)nc(N(C)C)n1	22.4 µM (inconclusive)
COc1ccc(N2CCN(C(CNC(=O)C3CCCCC3)c3cccnc3)CC2)cc1 (stereo unspecified)	0.355 µM (inconclusive)
C[C@H]1CN(S(=O)(=O)c2cccc3cnccc23)CCN1	39.8 µM (inconclusive)
O=C1CC(c2cccc(F)c2)SC(N(c2ccccc2)c2ccccc2)=N1 (stereo unspecified)	25.1 µM (inconclusive)
CS(=O)(=O)N(CC(=O)Nc1c(F)cccc1F)c1ccc(C23CC4CC(CC(C4)C2)C3)cc1	4.47 µM (inconclusive)

---

- assayed_system: DNA dC->dU-editing enzyme APOBEC-3G (Homo sapiens, UniProt Q9HC16)
- Sequence (Q9HC16 whole entry): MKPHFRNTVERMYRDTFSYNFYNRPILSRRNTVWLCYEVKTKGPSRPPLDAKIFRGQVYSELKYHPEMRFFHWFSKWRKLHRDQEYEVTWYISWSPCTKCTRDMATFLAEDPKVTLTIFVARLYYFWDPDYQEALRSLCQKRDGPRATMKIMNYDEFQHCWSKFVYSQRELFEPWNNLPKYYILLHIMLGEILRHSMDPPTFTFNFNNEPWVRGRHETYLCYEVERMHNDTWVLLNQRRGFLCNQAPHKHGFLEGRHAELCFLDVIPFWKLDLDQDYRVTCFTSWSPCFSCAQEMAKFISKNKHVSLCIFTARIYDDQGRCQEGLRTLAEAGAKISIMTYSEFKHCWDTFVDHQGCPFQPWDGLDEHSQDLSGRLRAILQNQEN
- protocol_notes: Dose Response confirmation of small molecule APOBEC3G DNA Deaminase Inhibitors via a fluorescence-based single-stranded DNA deaminase assay. [Related pubchem assays (depositor defined):AID493012, AID493028]
- Format: functional
Active and inactive are the calls of the source.
assay_readout: IC50

C=C(C)Cn1c(-c2cccc([N+](=O)[O-])c2)n[nH]c1=S	5.5 µM (active)
O=c1c2ccccc2sn1-c1ccccc1	6.4 µM (active)
Cc1c2cnn(CC(=O)Nc3c(F)c(F)cc(F)c3F)c(=O)c2c(C)n1Cc1ccccc1F	9.31 µM (active)
C=C(C)C(=O)Nc1cccc(C2=NOC3(C2)C[C@@H](C(N)=O)N(C(=O)CCCCC)C3)c1 (stereo not given in full)	2.82 µM (active)
Clc1ccc(Cl)c(-c2nn3c(COc4ccccc4)nnc3s2)c1	37 µM (active)
